Assay: qHTS assay to identify small molecule antagonists of the androgen receptor (AR) signaling pathway using the MDA cell line in the presence of 0.5 nM R1881 - cell viability counter screen (AID 1259242); note: % is set by controls: 0 for no effect and ±100 for the full control effect; nearly all actives have a fitted effect of over 45% in size
Settings: MDA-kb2 viability, CellTiter-Fluor protease fluorescence, 16 h; series mostly up to 92.4 µM
Records with an inconclusive call do not appear. Calls of active or inactive are those of the source. Calls come from the whole dose curve; as a rule, active = well fitted cell-killing curve with a large enough effect in the repeat runs; inconclusive = weak or mixed curves, or effect the other way; inactive = flat fitted curve, though single readings scatter.

Compound Structure: FC(F)(F)c1ccccc1
viability change, negative = cytotoxic: inactive
//
Compound Structure: Cc1c(N)cccc1N
viability change, negative = cytotoxic: inactive
//
Compound Structure: NC(=O)NS(=O)(=O)c1ccc(Cl)cc1
viability change, negative = cytotoxic: inactive
//
Compound Structure: CO[Si](C)(C)OC
viability change, negative = cytotoxic: inactive
//
Compound Structure: O=C1CCN(c2ccccc2)N1
viability change, negative = cytotoxic: inactive
//
Compound Structure: CC(C)C[C@H](NC(=O)OCC1c2ccccc2-c2ccccc21)C(=O)O
viability change, negative = cytotoxic: inactive
//
Compound Structure: Cc1ccc([N+](=O)[O-])cc1Cl
viability change, negative = cytotoxic: inactive
//
Compound Structure: c1ccc(CN(CC2=NCCN2)c2ccccc2)cc1
viability change, negative = cytotoxic: inactive

----------
Assay: qHTS assay to identify small molecule antagonists of the glucocorticoid receptor (GR) signaling pathway - cell viability counter screen (AID 720693); note: % is set by controls: 0 for no effect and ±100 for the full control effect; nearly all actives have a fitted effect of over 55% in size
Conditions: GR-bla HeLa viability, CellTiter-Glo luminescence, 18 h, with 5 nM dexamethasone present; series mostly up to 58.5 µM
Source text: National Center for Advancing Translational Sciences [NCATS] NIH Chemical Genomics Center [NCGC] U.S. Environmental Protection Agency [EPA] National Institutes of Environmental Health Sciences [NIEHS] National Toxicology Program [NTP] U.S. Food and Drug Administration [FDA] The Glucocorticoid receptor (GR) is one of the members of the nuclear receptor family of ligand-dependent transcription factors. […] The activation of the reporter gene under culture conditions can be detected by fluorescence intensity. […]
Inconclusive results are not listed. Activity calls are given as the source filed them. Calls follow the shape of the dose curve; as a rule, active = well fitted cell-killing curve with a large enough effect in the repeat runs; inconclusive = weak or mixed curves, or effect the other way; inactive = no such curve, though single readings can be large or run the other way.

Molecule: O=C1N(c2ccccc2)c2ccccc2C1(Cc1ccncc1)Cc1ccncc1
viability change, negative = cytotoxic: inactive

Molecule: CO[Si](C)(C)OC
viability change, negative = cytotoxic: inactive

Molecule: COc1cc(Cl)ccc1Cl
viability change, negative = cytotoxic: inactive

Molecule: CC(C)C(=O)OCC(C)(C)C(O)C(C)C (configuration not stated)
viability change, negative = cytotoxic: inactive

Molecule: Cc1cccc(C)c1NC(=O)CN1CCCCCC1
viability change, negative = cytotoxic: inactive

Molecule: COc1ccccc1OCC(O)COC(N)=O (configuration not stated)
viability change, negative = cytotoxic: inactive

Molecule: CCOC(=O)C1CC(=O)C(=C(O)C2CC2)C(=O)C1 (configuration not stated)
viability change, negative = cytotoxic: inactive

----------
Assay: qHTS assay to identify small molecule agonists of the estrogen related receptor (ERR) signaling pathway from Tox21 library (AID 1224849); note: % is set by controls: 0 for no effect and ±100 for the full control effect; nearly all actives have a fitted effect of over 15% in size
Settings: ERR reporter cell line, ONE-Glo luciferase, 18 h; at 92.4 µM (top of the series) unless noted
The source made the active and inactive calls. Calls come from the whole dose curve.
Classes used: active, inactive

Molecule: CN1CCN(C2=Nc3cc(F)ccc3Cc3ccccc32)CC1
Cat: inactive

Molecule: FC(F)(F)c1ccccc1
Cat: inactive

Molecule: CCCCC1CCC(=O)O1 (centres undefined)
Cat: inactive

Molecule: O=C1CCC(C2CCCCC2)CC1
Cat: inactive

Molecule: CCCCCCCCOC(=O)CCCCCCCCC(=O)OCCCCCCCC
Cat: inactive

Molecule: CN1CCC[C@@H]1Cc1c[nH]c2ccc(CCS(=O)(=O)c3ccccc3)cc12
Cat: inactive

Molecule: CCCCNc1ccc(C(=O)OCCN(CC)CC)cc1
Cat: inactive

Molecule: CCCCCCCCCC/C=C/C#N
Cat: inactive

Molecule: CC(C)(C)c1ccc(OC(=O)c2ccccc2O)cc1
Cat: active

Molecule: CCOC(=O)c1ccccc1O
Cat: inactive

Molecule: C[C@]12C(=O)OC(=O)[C@H]1[C@H]1C=C[C@@H]2C1
Cat: inactive

Molecule: CC(C)OC(C)C
Cat: inactive

Molecule: O=C(O)[C@@H](O)[C@H](O)[C@H](O)[C@@H](O)C(=O)O
Cat: inactive

Molecule: Cc1ccc([N+](=O)[O-])cc1Cl
Cat: active

----------
Experiment: A CellTox Green Cytotoxicity Assay to monitor cytotoxicity in HEK293 cells - 40 hour (AID 1224871); note: nearly all actives have a fitted effect of over 45% in size
Conditions: CellTox Green fluorescence; series mostly up to 76.8 µM
Results filed as inconclusive are left out. Activity calls are given as the source filed them. Calls follow the shape of the dose curve; as a rule, active = well fitted activation curve with a large enough effect in the repeat runs; inconclusive = weak or mixed curves; inactive = flat fitted curve, though single readings scatter.
Classes used: class 1 (active), class 0 (inactive)

Compound Structure: COc1cc2c(cc1N)oc1ccccc12
Cat: class 0

Compound Structure: CCCOCCC
Cat: class 0

Compound Structure: CCCCCCCCc1ccc(S(=O)(=O)O)cc1
Cat: class 1

----------
Assay: qHTS assay for identifying genotoxic compounds that show differential cytotoxicity against isogenic chicken DT40 cell lines with known DNA damage response pathways - Rev3 mutant cell line (AID 743014); note: nearly all actives have a fitted effect of over 55% in size; note: potency is the fitted concentration of half-maximal effect
Details: chicken DT40 Rev3-/- viability, CellTiter-Glo, 40 h; series mostly up to 68.4 µM
Records with an inconclusive call do not appear. Activity calls are given as the source filed them. Calls follow the shape of the dose curve; as a rule, active = well fitted cell-killing curve with a large enough effect in the repeat runs; inconclusive = weak or mixed curves, or effect the other way; inactive = no such curve, though single readings can be large or run the other way.

Compound: FC(F)(F)C(Cl)(Cl)Cl
Potency: inactive
--
Compound: CC(C)O
Potency: inactive
--
Compound: C=Cc1ccccc1
Potency: inactive
--
Compound: Cc1ccsc1C(=CCCN1CCC[C@@H](C(=O)O)C1)c1sccc1C
Potency: inactive
--
Compound: Oc1ccccc1F
Potency: inactive
--
Compound: CC1=NN(c2cc(Cl)c(S(=O)(=O)O)cc2Cl)C(=O)C1N=Nc1ccc(S(=O)(=O)O)cc1 (centres undefined)
Potency: inactive
--
Compound: O=C(O)CN(CCN(CC(=O)O)CC(=O)O)CCN(CC(=O)O)CC(=O)O
Potency: 26.6 µM (active)
--
Compound: CN1CCC[C@@H]1Cc1c[nH]c2ccc(CCS(=O)(=O)c3ccccc3)cc12
Potency: 33.5 µM (active)
--
Compound: CCCCCCCCc1ccc(S(=O)(=O)O)cc1
Potency: inactive
--
Compound: Cc1ccc(C)c(N)c1
Potency: inactive
--
Compound: Cc1ccc([N+](=O)[O-])c(N)c1
Potency: inactive
--
Compound: CCC/C=C/CO
Potency: inactive
--
Compound: O=C1CCN(c2ccccc2)N1
Potency: 68.8 µM (active)
--
Compound: O=c1[nH]cnc2c1ncn2[C@@H]1O[C@H](CO)[C@@H](O)[C@H]1O
Potency: inactive

----------
Assay: qHTS assay to identify small molecule agonists of the AP-1 signaling pathway - cell viability counter screen (AID 1159525); note: nearly all actives have a fitted effect of over 55% in size
Conditions: ME-180 (cervical carcinoma) AP-1-bla cells viability, ATP luminescence, 5 h; series mostly up to 76.8 µM
Records with an inconclusive call do not appear. Active and inactive are the calls of the source. The call rests on the fitted dose curve.
Readout Kind: viability change, negative = cytotoxic

Compound: CCCCCCn1c(=O)c2c(ncn2C)n(C)c1=O
Readout Kind: viability change, negative = cytotoxic
Test Value: inactive

Compound: Cc1cccc(C)c1NC(=O)CN1CCCCCC1
Readout Kind: viability change, negative = cytotoxic
Test Value: inactive

Compound: CCCCC(CC)COC(=O)COc1cc(Cl)c(Cl)cc1Cl (stereo unspecified)
Readout Kind: viability change, negative = cytotoxic
Test Value: inactive

Compound: CCCCNc1cc(C(=O)O)cc(S(N)(=O)=O)c1Oc1ccccc1
Readout Kind: viability change, negative = cytotoxic
Test Value: inactive

Compound: CC(C)(CO)[C@@H](O)C(=O)NCCC(=O)O
Readout Kind: viability change, negative = cytotoxic
Test Value: inactive

Compound: C[C@]12C(=O)OC(=O)[C@H]1[C@H]1C=C[C@@H]2C1
Readout Kind: viability change, negative = cytotoxic
Test Value: inactive

Compound: Cc1ccc([N+](=O)[O-])cc1Cl
Readout Kind: viability change, negative = cytotoxic
Test Value: inactive

Compound: O=c1oc2c(O)c(O)cc3c(=O)oc4c(O)c(O)cc1c4c23
Readout Kind: viability change, negative = cytotoxic
Test Value: 7.4% [at 15.8 µM] (inactive)

Compound: O=C1CCCCCCCCCCC(=O)OCCO1
Readout Kind: viability change, negative = cytotoxic
Test Value: inactive

Compound: CCC(=O)Nc1ccc(O)cc1
Readout Kind: viability change, negative = cytotoxic
Test Value: inactive

Compound: Cc1nnc(SCC2=C(C(=O)O)N3C(=O)[C@@H](NC(=O)Cn4cnnn4)[C@H]3SC2)s1
Readout Kind: viability change, negative = cytotoxic
Test Value: inactive

Compound: CN1CCN(c2c(F)cc3c(=O)c(C(=O)O)cn4c3c2SCC4)CC1
Readout Kind: viability change, negative = cytotoxic
Test Value: inactive

Compound: CC1CN(c2ccccc2)NC1=O (stereo unspecified)
Readout Kind: viability change, negative = cytotoxic
Test Value: inactive

Compound: Cc1cc2nc(N)sc2cc1C
Readout Kind: viability change, negative = cytotoxic
Test Value: inactive

Compound: CC(=O)Oc1cc(C(C)C)c(OCCN(C)C)cc1C
Readout Kind: viability change, negative = cytotoxic
Test Value: inactive

Compound: CCCCCCCCc1ccc(S(=O)(=O)O)cc1
Readout Kind: viability change, negative = cytotoxic
Test Value: inactive

Compound: NC(=O)Cc1cccc(C(=O)c2ccccc2)c1N
Readout Kind: viability change, negative = cytotoxic
Test Value: inactive

Compound: CNCCC(Oc1ccccc1OC)c1ccccc1 (stereo unspecified)
Readout Kind: viability change, negative = cytotoxic
Test Value: inactive

Compound: O=C1CCN(c2ccccc2)N1
Readout Kind: viability change, negative = cytotoxic
Test Value: inactive

Compound: CCOc1ccccc1N
Readout Kind: viability change, negative = cytotoxic
Test Value: inactive

Compound: C1CCOC1
Readout Kind: viability change, negative = cytotoxic
Test Value: inactive

Compound: Cc1ccc([N+](=O)[O-])c(N)c1
Readout Kind: viability change, negative = cytotoxic
Test Value: inactive

Compound: Cc1c[nH]c(=S)[nH]c1=O
Readout Kind: viability change, negative = cytotoxic
Test Value: inactive

Compound: CC1=C(CC(=O)O)c2cc(F)ccc2/C1=C\c1ccc(S(C)(=O)=O)cc1
Readout Kind: viability change, negative = cytotoxic
Test Value: inactive

Compound: COc1ccc2nc(NC(=O)Nc3ccccc3)sc2c1
Readout Kind: viability change, negative = cytotoxic
Test Value: inactive

Compound: COc1cc(Cl)ccc1Cl
Readout Kind: viability change, negative = cytotoxic
Test Value: inactive
